The measurements presented in this section are drawn from the supplement of paper PMC11246515.

- Measurement protocol: total protein half-life in vivo (active degradation + dilution); higher = more stable protein
- Conditions: wild type E. coli NCM3722; growth: C-lim chemostat; doubling time 3 h

>  <Sequence string>
MSIDRTSPLKPVSTVQPRETTDAPVTNSRAAKTTASTSTSVTLSDAQAKLMQPGSSDINLERVEALKLAIRNGELKMDTGKIADALINEAQQDLQSN [P0AEM4]

>  <total protein half-life in vivo (h)>
0.693

$$$$
>  <Sequence string>
MSRPLLQLALDHSSLEAAQRDVTLLKDSVDIVEAGTILCLNEGLGAVKALREQCPDKIIVADWKVADAGETLAQQAFGAGANWMTIICAAPLATVEKGHAMAQRCGGEIQIELFGNWTLDDARDWHRIGVRQAIYHRGRDAQASGQQWGEADLARMKALSDIGLELSITGGITPADLPLFKDIRVKAFIAGRALAGAANPAQVAGDFHAQIDAIWGGARA

>  <total protein half-life in vivo (h)>
3.07

$$$$

----------
- Measurement protocol: total protein half-life in vivo (active degradation + dilution); higher = more stable protein
- Conditions: wild type E. coli NCM3722; growth: P-lim chemostat; doubling time 12 h
Measure: total protein half-life in vivo

>  <Sequence string>
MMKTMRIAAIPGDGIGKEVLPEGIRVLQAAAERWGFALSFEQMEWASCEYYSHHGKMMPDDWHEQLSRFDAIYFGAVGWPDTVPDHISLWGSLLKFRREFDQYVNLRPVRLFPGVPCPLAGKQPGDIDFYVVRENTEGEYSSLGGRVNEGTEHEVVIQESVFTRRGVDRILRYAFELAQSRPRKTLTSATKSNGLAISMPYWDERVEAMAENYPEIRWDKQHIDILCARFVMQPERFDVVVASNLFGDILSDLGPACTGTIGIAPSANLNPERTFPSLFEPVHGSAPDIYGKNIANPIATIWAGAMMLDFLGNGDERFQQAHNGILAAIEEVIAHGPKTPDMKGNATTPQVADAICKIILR

>  <Assay value>
11.1 h

$$$$
>  <Sequence string>
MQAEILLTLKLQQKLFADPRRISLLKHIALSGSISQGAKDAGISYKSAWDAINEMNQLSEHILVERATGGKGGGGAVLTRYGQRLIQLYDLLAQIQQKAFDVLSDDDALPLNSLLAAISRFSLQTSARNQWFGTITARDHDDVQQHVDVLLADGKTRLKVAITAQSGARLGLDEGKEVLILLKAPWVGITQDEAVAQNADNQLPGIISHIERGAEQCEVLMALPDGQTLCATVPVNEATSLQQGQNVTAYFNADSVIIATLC [P0A9G8]

>  <Assay value>
12.1 h

$$$$
>  <Sequence string>
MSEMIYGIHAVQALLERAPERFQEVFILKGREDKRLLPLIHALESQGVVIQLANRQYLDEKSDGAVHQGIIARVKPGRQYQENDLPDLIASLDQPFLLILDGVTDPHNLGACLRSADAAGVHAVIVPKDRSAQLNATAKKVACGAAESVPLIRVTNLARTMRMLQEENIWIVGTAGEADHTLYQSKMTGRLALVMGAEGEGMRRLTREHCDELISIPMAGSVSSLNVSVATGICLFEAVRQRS

>  <Assay value>
11.5 h

$$$$

----------
- Measurement protocol: total protein half-life in vivo (active degradation + dilution); higher = more stable protein
- Conditions: E. coli NCM3722 delta-smpB; growth: N-lim chemostat; doubling time 6 h
Below: a set of entries, each annotated with reported total protein half-life in vivo.
Measure: total protein half-life in vivo (h)

>  <Sequence string>
MKIVIAPDSFKESLSAEKCCQAIKAGFSTLFPDANYICLPIADGGEGTVDAMVAATGGNIVTLEVCGPMGEKVNAFYGLTGDGKTAVIEMAAASGLMLVAPEKRNPLLASSFGTGELIRHALDNDIRHIILGIGGSATVDGGMGMAQALGVRFLDADGQALAANGGNLARVASIEMDECDPRLANCHIEVACDVDNPLVGARGAAAVFGPQKGATPEMVEELEQGLQNYARVLQQQTEINVCQMAGGGAAGGMGIAAAVFLNADIKPGIEIVLNAVNLAQAVQGAALVITGEGRIDSQTAGGKAPLGVASVAKQFNVPVIGIAGVLGDGVEVVHQYGIDAVFSILPRLAPLAEVLASGETNLFNSARNIACAIKIGQGIKN

>  <Assay value>
4.3

$$$$
>  <Sequence string>
MSDTTELVDLAVIFPDLEIELKYACADNITGKAIYQQARCLLHKDAITALAKSISIAQLSGLQLVIYDAYRPQQAQAMLWQACPDPQYVVDVTVGSNHSRGTAIDLTLRDEHGNILDMGAGFDEMHERSHAYHPSVPPAAQRNRLLLNAIMTGGGFVGISSEWWHFELPQAASYPLLADQFSCFISPGTQHVS

>  <Assay value>
1.89

$$$$
>  <Sequence string>
MFDIGVNLTSSQFAKDRDDVVACAFDAGVNGLLITGTNLRESQQAQKLARQYSSCWSTAGVHPHDSSQWQAATEEAIIELAAQPEVVAIGECGLDFNRNFSTPEEQERAFVAQLRIAADLNMPVFMHCRDAHERFMTLLEPWLDKLPGAVLHCFTGTREEMQACVAHGIYIGITGWVCDERRGLELRELLPLIPAEKLLIETDAPYLLPRDLTPKPSSRRNEPAHLPHILQRIAHWRGEDAAWLAATTDANVKTLFGIAF

>  <Assay value>
3.97

$$$$
